PROTOCOL SUMMARY: protein stability index of a GFP-peptide fusion (yeast GPS) (PSI 1-4); higher = more stable; sorted into four equal gates, so the index is relative within each strain
CONDITION DESCRIPTION: ubr1∆
MEASURED ATTRIBUTE: protein stability index
Reply with just the number.

Solved cases below.
INPUT SEQUENCE: LVSANNDNNSPHTPVTR [YLR018C/POM34]
protein stability index: 2.95

INPUT SEQUENCE: LDSQETPSTEESRAQNV [SWI3]
protein stability index: 2.37

Req: Request the reported protein stability index associated with VLPNTALKTSIQHVGMI [FAS1]
Resp: 2.4

Req: Request the reported protein stability index associated with RQLTSLGSKKELGISLE [SNU114]
Resp: 3.36

Req: Request the reported protein stability index associated with PQQSGKKLLINKDASLA [DPB4]
Resp: 2.22

Req: Request the reported protein stability index associated with EGRLLDNVQANDPAREK [SNF12]
Resp: 3.18

Req: Request the reported protein stability index associated with YEFPIEGIEIYDRKKLP [RPC11]
Resp: 3.3

Req: Request the reported protein stability index associated with IRKGPAPLNLEIPAYEF [RIP1]
Resp: 2.73

Req: Request the reported protein stability index associated with NEQAARAANQGALPPDL [CYT1]
Resp: 3.03

Req: Request the reported protein stability index associated with DANLLEEGETSRPLKKV [SWI3]
Resp: 2.99

Req: Request the reported protein stability index associated with LEKISSSNKDLEDEKMK [SMC4]
Resp: 3.26

Req: Request the reported protein stability index associated with GTNAMLPSPESLKTKLN [SNF5]
Resp: 2.12
